experimental.target: Recombinant human BACE-1 (Homo sapiens)
Construct: purchased R&D Systems
assay.remarks: Assay of β-secretase-inhibiting activity
Type: biochemical
experimental.context: Recombinant human BACE-1 7.4 nM, substrate peptide 18 nM, pH 5.0, 30° C., 3 hours; time-resolved fluorescence ratio 665/620; read-out: IC50 values (50% inhibitory concentration against the enzymatic activity)
pIC50: −log10 of the molar value.
Record form. Attribute: pIC50. Fill in for each entry.

For COc1cc(C(=O)Nc2ccc(F)c([C@]3(C)CCSC(N)=N3)c2)on1 , what is its reported pIC50?
≥ 6.00

Record: COc1cnc(C(=O)Nc2cncc([C@]3(C)CCSC(N)=N3)c2)cn1
≥ 6.00

// same read-out, input: COc1cnc(C(=O)Nc2ccc(F)c([C@@]3(C)N=C(N)SCC3(F)F)c2)cn1
≥ 6.00

Let us now turn to Cc1cc(C(=O)Nc2cncc([C@]3(C)CCSC(N)=N3)c2)n(C)n1
≥ 6.00

Again, but for Cc1cc(C(=O)Nc2ccc(F)c([C@]3(C)CCSC(N)=N3)c2)n(C)n1
≥ 6.00

Try the compound CC#CCOc1ccc(C(=O)Nc2cccc([C@]3(C)CCSC(N)=N3)c2)nc1
≥ 6.00

Another: C#CCOc1cnc(C(=O)Nc2cccc([C@]3(C)CC(C)(C)SC(N)=N3)c2)cn1
≥ 6.00

Check C[C@@]1(c2cc(NC(=O)c3cnc(-c4ccoc4)cn3)ccc2F)CCSC(N)=N1 too.
≥ 6.00

Similarly, CCc1cnc(C(=O)Nc2cccc([C@]3(C)CCSC(N)=N3)c2)cn1 ?
≥ 6.00

Check COc1ccc(NC(=O)c2cnc(C)cn2)cc1[C@]1(C)CCSC(N)=N1 too.
≥ 6.00

# iterate: CC#CCOc1cnc(C(=O)Nc2cccc([C@]3(C)CC(C)(C)SC(N)=N3)c2)cn1
≥ 6.00

Request: Cc1nc(C(=O)Nc2cncc([C@]3(C)CCSC(N)=N3)c2)c(C(F)(F)F)o1
≥ 6.00

Now consider C[C@@]1(c2cc(NC(=O)c3cnc(N=[N+]=[N-])cn3)ccc2F)CCSC(N)=N1 .
≥ 6.00

Param item: CC1(C)C[C@@](C)(c2cc(NC(=O)c3ncc(C(F)(F)F)cc3Cl)ccc2F)N=C(N)S1
≥ 6.00

Please do the same for CC#CCOc1cnc(C(=O)Nc2cncc([C@]3(C)CCSC(N)=N3)c2)cn1 as well.
≥ 6.00

Param item: Cc1cnc(C(=O)Nc2ccc(F)c([C@@]3(C)N=C(N)SCC3(C)C)c2)cn1
≥ 6.00

Also, C[C@@]1(c2cc(NC(=O)c3cnc(Cl)cn3)ccc2F)CCSC(N)=N1 please.
≥ 6.00

---

I'd appreciate it if you could supply pIC50 values for the items below.
experimental.target: Recombinant human BACE-1 (Homo sapiens, UniProt P56817)
Construct: purchased R&D Systems
Sequence (P56817 46-501): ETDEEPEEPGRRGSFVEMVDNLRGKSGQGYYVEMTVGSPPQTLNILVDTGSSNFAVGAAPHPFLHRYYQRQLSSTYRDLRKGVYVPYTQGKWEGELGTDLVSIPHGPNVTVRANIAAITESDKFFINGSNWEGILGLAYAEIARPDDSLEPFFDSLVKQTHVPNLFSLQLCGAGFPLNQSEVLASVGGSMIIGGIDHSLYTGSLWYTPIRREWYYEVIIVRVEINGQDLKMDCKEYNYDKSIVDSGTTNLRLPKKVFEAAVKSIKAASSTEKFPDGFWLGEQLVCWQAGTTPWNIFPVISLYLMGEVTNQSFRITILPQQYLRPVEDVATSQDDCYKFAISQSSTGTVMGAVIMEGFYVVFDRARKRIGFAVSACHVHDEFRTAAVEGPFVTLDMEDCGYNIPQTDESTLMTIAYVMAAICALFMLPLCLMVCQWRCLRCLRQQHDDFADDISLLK
assay.remarks: Assay of β-secretase-inhibiting activity
Type: biochemical
experimental.context: Recombinant human BACE-1 7.4 nM, substrate peptide 18 nM, pH 5.0, 30° C., 3 hours; Table 139; read-out: IC50
The value called pIC50 is obtained by taking minus log10 of the concentration in mol/L.

Give the measured pIC50 of C=C(C)COc1cnc(C(=O)Nc2cccc([C@]3(C)CCSC(N)=N3)c2)cn1 [Compound 109] .
7.00

Note, next up: COCCOc1cnc(C(=O)Nc2cccc([C@]3(C)CCSC(N)=N3)c2)cn1 [Compound 70]
7.05

Another compound to check: COCCOCCOc1cnc(C(=O)Nc2ccc(F)c([C@]3(C)CCSC(N)=N3)c2)cn1 [Compound 164]
7.10

Let us now turn to C=Cc1cnc(C(=O)Nc2cccc([C@]3(C)CCSC(N)=N3)c2)cn1 [Compound 66]
6.82

Quick one: C/C=C/COc1ccc(C(=O)Nc2cccc([C@]3(C)CCSC(N)=N3)c2)nc1 [Compound 34]
7.00

Can you check Cc1cc(C(=O)Nc2cccc([C@]3(C)CCSC(N)=N3)c2)c(C)s1 [Compound 11] next?
6.77

Cool, now C[C@@]1(c2cccc(NC(=O)c3cnc(OCc4ccccc4)cn3)c2)CCSC(N)=N1 [Compound 101]
7.10

Same read-out for C=CCCOc1cnc(C(=O)Nc2cccc([C@]3(C)CCSC(N)=N3)c2)cn1 [Compound 86] ?
6.72

Please do the same for CCSc1cnc(C(=O)Nc2cccc([C@]3(C)CCSC(N)=N3)c2)cn1 [Compound 80] as well.
7.15

Follow-up item: C[C@@]1(c2cc(NC(=O)c3cnc(-c4ccco4)cn3)ccc2F)CCSC(N)=N1 [Compound 136]
6.96

Do the same for C[C@@]1(c2cccc(NC(=O)c3ccc(OCc4ccc(F)cc4)cn3)c2)CCSC(N)=N1 [Compound 111] please
6.74

Further, for CSCCOc1cnc(C(=O)Nc2cccc([C@]3(C)CCSC(N)=N3)c2)cn1 [Compound 76] ?
6.74

Here is the next compound: CCCOc1cnc(C(=O)Nc2cccc([C@]3(C)CCSC(N)=N3)c2)cn1 [Compound 72]
6.96

Another compound to check: C[C@@]1(c2cc(NC(=O)c3ccc(OCCO)cn3)ccc2F)CCSC(N)=N1 [Compound 114]
6.80

---

experimental.target: Recombinant human BACE-1 (Homo sapiens)
Construct: purchased R&D Systems
assay.remarks: Assay of β-secretase-inhibiting activity
Format: biochemical
experimental.context: Recombinant human BACE-1 7.4 nM, substrate peptide 18 nM, pH 5.0, 30° C., 3 hours; Table 141; read-out: IC50
assay.endpoint: pIC50
Bear in mind: pIC50 is minus log10 of a mol/L concentration; give just that figure.

Request the reported pIC50 associated with COc1ncc(NC(=O)c2cnc(C)cn2)cc1[C@]1(C)CCSC(N)=N1 [Compound 680]
7.30

# repeat for Cc1cnc(C(=O)Nc2ccc(F)c([C@@]3(C)N=C(N)SCC34CC4)c2)cn1 [Compound 674]
8.00

Further, for COc1nc(C(=O)Nc2ccc(F)c([C@]3(C)CCSC(N)=N3)c2)co1 [Compound 667] ?
7.70

Next entry: Cc1cn2cc(C(=O)Nc3ccc(F)c([C@]4(C)CCSC(N)=N4)c3)ncc2n1 [Compound 652]
7.22

Continue with C[C@]1(c2cc(NC(=O)c3ncccc3F)ccc2F)N=C(N)SCC1(F)F [Compound 660]
6.96

Entry C[C@@]1(c2cc(Nc3ncc4ccccn34)ccc2F)CCSC(N)=N1 [Compound 668] please
6.29

// repeat for C[C@@]1(c2cc(NC(=O)c3cnc(NCC(F)(F)F)cn3)ccc2F)CCSC(N)=N1 [Compound 702] and report
6.80

And CC1(C)C[C@@](C)(c2cc(NC(=O)c3ncccc3F)ccn2)N=C(N)S1 [Compound 655] ?
8.00

---

Hi there, I'd appreciate the recorded IC50 for every entry that follows.
experimental.target: Recombinant human BACE-1 (Homo sapiens)
Construct: purchased R&D Systems
assay.remarks: Assay of β-secretase-inhibiting activity;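 further: substrate is a peptide carrying biotin and europium cryptate, after the enzyme reaction, Streptavidin-XL665 is added and incubated 1 h at 30 °C before fluorescence reading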
Format: biochemical
experimental.context: Recombinant human BACE-1 7.4 nM, substrate peptide 18 nM, pH 5.0, 30° C., 3 hours; Table 140; read-out: IC50
Reply numerically in nM, unit not repeated.

Fill in the recorded IC50 for this compound, with Recombinant human BACE-1 (Homo sapiens) as test system: Cc1nc(C(=O)Nc2cncc([C@]3(C)CCSC(N)=N3)c2)c(C)o1
30

Also C[C@@]1(c2cncc(NC(=O)c3cnc(Cl)cn3)c2)CCSC(N)=N1 ?
70

Now give it for C[C@@]1(c2cc(NC(=O)c3cnc(-n4ccc(C(F)(F)F)n4)cn3)ccc2F)CCSC(N)=N1 too.
130

Now give it for Cc1cnn(-c2cnc(C(=O)Nc3ccc(F)c([C@]4(C)CCSC(N)=N4)c3)cn2)c1 too.
30

Same read-out for C[C@@]1(c2cccc(NC(=O)c3ccc(Cl)cn3)n2)CCSC(N)=N1 ?
30

Again, but for C[C@@]1(c2cc(NC(=O)c3cnc(-c4ccsc4)cn3)ccc2F)CCSC(N)=N1
20
